Experiment: refractive index (Na D-line) (dimensionless)
Settings: 298.15 K; 101.33 kPa; Liquid; Standard Abbe refractometry
Entries and their refractive index

{"COMPOUND": "O=CO [formic acid]", "refractive index": 1.3721}
{"COMPOUND": "CCCCCCC(=O)OCC [ethyl heptanoate]", "refractive index": 1.41123}
{"COMPOUND": "O [water]", "refractive index": 1.33244}
{"COMPOUND": "CC(=O)O [acetic acid]", "refractive index": 1.37104}

====

Details: 293.15 K; 101.33 kPa; Liquid; Vibrating tube method
Entries and their mass density

{"COMPOUND": "O=CO", "mass density [kg/m3]": 1218.5}
{"COMPOUND": "CC(=O)O", "mass density [kg/m3]": 1044.3}
{"COMPOUND": "O", "mass density [kg/m3]": 999.9}
{"COMPOUND": "CCCCCCC(=O)OCC [ethyl heptanoate]", "mass density [kg/m3]": 881.3}

====

Entries and their Normal boiling temperature
Settings: Liquid; Closed cell (Static) method
EXPERIMENTAL READOUT: Normal boiling temperature (°C)

{"COMPOUND": "CCCCCCC(=O)OCC [ethyl heptanoate]", "QUANTITATIVE RESULT": 187.2}
{"COMPOUND": "CC(=O)O [acetic acid]", "QUANTITATIVE RESULT": 117.1}
{"COMPOUND": "O=CO [formic acid]", "QUANTITATIVE RESULT": 101.1}
{"COMPOUND": "O [water]", "QUANTITATIVE RESULT": 100.1}
